- System: T47D
- Experimental Details: NCI tumour cell line growth inhibition, 48 h
Calls of active or inactive are those of the source. No stated cut-off is given here; in the data, active = GI50 up to about 1.1 µM and inactive = higher.
Metric Name: GI50

Reference set, count: 4
NC1CC(=O)c2c(Br)csc21 (stereo not given) :: > 100 µM (inactive)
Cn1c2ccc3cc2c(=S)c2cc(ccc21)OCCOCCOCCOCCOCCO3 :: > 10 µM (inactive)
COC(=O)[C@@H]1C=C[C@@H](C#N)n2c(=O)n(-c3ccccc3)c(=O)n21 :: 24.2 µM (inactive)
O=C(NCCCNCCCCNCCCNC(=O)c1cc(-c2ccccc2)nc2ccccc12)c1cc(-c2ccccc2)nc2ccccc12 :: 2.63 µM (inactive)

Kindly note the recorded GI50 for COc1cc(/C=C2\N=C(c3ccccc3)N(c3nc4ccc(Sc5ccccc5)cc4[nH]3)C2=O)ccc1O , which is 27 µM (inactive)

Notebook: COc1ccc(/C=C/C(=O)c2cccc(C(=O)/C=C/c3ccc(OC)c(OC)c3)n2)cc1OC , GI50 read as > 49.3 µM (inactive)

For this compound ( O=C1CSC2(CC(/C=C/c3cccc(Br)c3)=NN2c2cccc(S(=O)(=O)O)c2)N1c1nc2ccccc2s1 (stereo not given) ), measured GI50 is 38.5 µM (inactive)

This collection of values is drawn from ChEMBL document CHEMBL1201862.
